assay: In vivo pharmacokinetics in rat plasma (UPLC-MS/MS, NCA); parameters: species or system Sprague-Dawley (SD) rats; conditions: male, Sprague-Dawley, plasma, ip, 50 ug/kg, intraperitoneal, first AUC0-t line
PROPERTY MEASURED: AUC(0-t) (ng·h/mL)
Give bare numbers, in ng·h/mL.

If you can, please state the reported AUC(0-t) value of O=C(NCc1ccc(O)cc1)C1C(c2ccccc2)C(c2ccccc2)=NN1c1ccccc1 (stereo not shown) . 1770

---

experiment: In vivo pharmacokinetics in rat plasma (UPLC-MS/MS, NCA); parameters: species or system Sprague-Dawley (SD) rats; conditions: male, Sprague-Dawley, plasma, ip, 50 ug/kg, intraperitoneal, second AUC0-t line
PROPERTY MEASURED: AUC(0-t) (ng·h/mL)
Numbers only, in ng·h/mL.

Field request: AUC(0-t) | item: O=C(NCc1ccc(O)cc1)C1C(c2ccccc2)C(c2ccccc2)=NN1c1ccccc1 (stereo not shown) 1820

---

experiment: In vivo pharmacokinetics in rat plasma (UPLC-MS/MS, NCA); parameters: species or system Sprague-Dawley (SD) rats; settings: male, Sprague-Dawley, plasma, ip, 50 ug/kg, intraperitoneal, 50 μg/kg, read-out: MRT0-t
PROPERTY MEASURED: MRT last (h)
Answers are plain numbers, in h.

Which MRT last is listed for O=C(NCc1ccc(O)cc1)C1C(c2ccccc2)C(c2ccccc2)=NN1c1ccccc1 (stereo not shown) ? 6.8

---

system: MDA-MB-231 cells; assay: cells; conditions: Homo sapiens, MDA-MB-231, 48 h, read-out: approximate IC50 of colony forming ability
pIC50: −log10 of the molar value.
PROPERTY MEASURED: pIC50

Field request: pIC50 | item: O=C(NCc1ccc(O)cc1)C1C(c2ccccc2)C(c2ccccc2)=NN1c1ccccc1 (stereo not shown) [BHX] ~4.70

---

experiment: In vivo pharmacokinetics in rat plasma (UPLC-MS/MS, NCA); set-up: species or system Sprague-Dawley (SD) rats; conditions: male, Sprague-Dawley, plasma, ip, 100 ug/kg, intraperitoneal, 100 μg/kg, read-out: t1/2 (converted)
PROPERTY MEASURED: half-life (h)
Numbers only, in h.

Request the reported half-life associated with O=C(NCc1ccc(O)cc1)C1C(c2ccccc2)C(c2ccccc2)=NN1c1ccccc1 (stereo not shown) 4.11

---

Tested on: MDA-MB-231 cells
Assay: cells
Details: Homo sapiens, MDA-MB-231, 72 h, read-out: IC50 of suppression of cell viability
Method: After incubation, MTT solution (5 mg/ml, 20 μl per well) was added and incubated for 4 h. The culture media were then replaced with dimethyl sulfoxide (DMSO, 150 μl). […] The results are expressed as mean percentage of viable cells relative to untreated cells.
PROPERTY MEASURED: pIC50
Answers are plain numbers, as −log10 of the molar value.

# query: pIC50 | item O=C(NCc1ccc(O)cc1)C1C(c2ccccc2)C(c2ccccc2)=NN1c1ccccc1 (stereo not shown) [BHX] | system: MDA-MB-231 cells 4.86

---

assay: In vivo pharmacokinetics in rat plasma (UPLC-MS/MS, NCA); parameters: species or system Sprague-Dawley (SD) rats; conditions: male, Sprague-Dawley, plasma, ip, 100 ug/kg, intraperitoneal, first AUC0-t line
PROPERTY MEASURED: AUC(0-t) (ng·h/mL)
Answers are plain numbers, in ng·h/mL.

Report AUC(0-t) for O=C(NCc1ccc(O)cc1)C1C(c2ccccc2)C(c2ccccc2)=NN1c1ccccc1 (stereo not shown) please. 2300
